Values compiled from patent US20210246166A1.

Target: T1, recombinant human MASP1 active protease (amino acids 297-699, C-terminal His Tag) (human, UniProt P48740 297-699)
T1 sequence: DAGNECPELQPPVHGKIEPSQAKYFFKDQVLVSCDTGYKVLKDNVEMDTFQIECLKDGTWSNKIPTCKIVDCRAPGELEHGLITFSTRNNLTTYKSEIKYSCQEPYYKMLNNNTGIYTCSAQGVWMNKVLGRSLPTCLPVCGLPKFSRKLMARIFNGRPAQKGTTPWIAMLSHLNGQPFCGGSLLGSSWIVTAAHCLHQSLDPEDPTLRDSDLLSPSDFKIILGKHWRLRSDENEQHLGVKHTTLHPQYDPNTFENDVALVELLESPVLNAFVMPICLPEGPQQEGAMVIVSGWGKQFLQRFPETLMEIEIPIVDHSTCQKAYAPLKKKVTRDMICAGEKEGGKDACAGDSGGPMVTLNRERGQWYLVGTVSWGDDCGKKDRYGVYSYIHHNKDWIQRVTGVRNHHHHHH
Assay: cell-based or functional assay
Bridge positions count the residues as written; N and C are the ends. Square brackets hold non-standard residues; d marks the D form. Ends that are not written are not given here. PEG9 = NCCOCCOCCOCCOCCOCCOCCOCCOCCOCCC(=O)O; Pro(4-spirocPr) = O=C(O)[C@@H]1CC2(CC2)CN1; Oic = O=C(O)[C@@H]1C[C@@H]2CCCC[C@@H]2N1; tBuAla = CC(C)(C)C[C@H](N)C(=O)O; PEG5 = NCCOCCOCCOCCOCCOCCC(=O)O; Pen = CC(C)(S)[C@H](N)C(=O)O; NMeC = CN[C@@H](CS)C(=O)O; PEG3 = NCCOCCOCCOCCC(=O)O; NMeA = CN[C@@H](C)C(=O)O; Orn = NCCC[C@H](N)C(=O)O; Sar = CNCC(=O)O
Each record here notes measured human MASP1 IC50.

{"columns": ["binder", "human MASP1 IC50 [nM]"],
 "data": [
  ["[NMeA]ICSRS[tBuAla]P[Oic]I[Pen]I-NH2 (disulfide 3-11; N-terminus assumed; SMILES CC[C@H](C)[C@H](NC(=O)[C@H]1NC(=O)[C@H]([C@@H](C)CC)NC(=O)[C@@H]2C[C@@H]3CCCC[C@@H]3N2C(=O)[C@@H]2CCCN2C(=O)[C@H](CC(C)(C)C)NC(=O)[C@H](CO)NC(=O)[C@H](CCCNC(=N)N)NC(=O)[C@H](CO)NC(=O)[C@@H](NC(=O)[C@@H](NC(=O)[C@H](C)NC)[C@@H](C)CC)CSSC1(C)C)C(N)=O) [((N-Me)A)-IC+SRS-((tBu)A)-P-(Oic)-I-(Pen)+I-NH2]", 1.8],
  ["[Orn]ICSRS[tBuAla]PPI[Pen]IP-NH2 (disulfide 3-11; N-terminus assumed; SMILES CC[C@H](C)[C@H](NC(=O)[C@@H](N)CCCN)C(=O)N[C@H]1CSSC(C)(C)[C@@H](C(=O)N[C@H](C(=O)N2CCC[C@H]2C(N)=O)[C@@H](C)CC)NC(=O)[C@H]([C@@H](C)CC)NC(=O)[C@@H]2CCCN2C(=O)[C@@H]2CCCN2C(=O)[C@H](CC(C)(C)C)NC(=O)[C@H](CO)NC(=O)[C@H](CCCNC(=N)N)NC(=O)[C@H](CO)NC1=O) [(Orn)-IC+SRS-((tBu)A)-PPI-(Pen)+IP-NH2]", 3.2],
  ["AICSRSLP[Oic]I[NMeC]IP-NH2 (disulfide 3-11; N-terminus assumed; SMILES CC[C@H](C)[C@H](NC(=O)[C@H](C)N)C(=O)N[C@H]1CSSC[C@@H](C(=O)N[C@H](C(=O)N2CCC[C@H]2C(N)=O)[C@@H](C)CC)N(C)C(=O)[C@H]([C@@H](C)CC)NC(=O)[C@@H]2C[C@@H]3CCCC[C@@H]3N2C(=O)[C@@H]2CCCN2C(=O)[C@H](CC(C)C)NC(=O)[C@H](CO)NC(=O)[C@H](CCCNC(=N)N)NC(=O)[C@H](CO)NC1=O) [AIC+SRSLP-(Oic)-I-((N-Me)C)+IP-NH2]", 3.2],
  ["[Sar]ICSRS[tBuAla]PPI[Pen]IP[PEG5]-NH2 (disulfide 3-11; N-terminus assumed; SMILES CC[C@H](C)[C@H](NC(=O)CNC)C(=O)N[C@H]1CSSC(C)(C)[C@@H](C(=O)N[C@H](C(=O)N2CCC[C@H]2C(=O)NCCOCCOCCOCCOCCOCCC(N)=O)[C@@H](C)CC)NC(=O)[C@H]([C@@H](C)CC)NC(=O)[C@@H]2CCCN2C(=O)[C@@H]2CCCN2C(=O)[C@H](CC(C)(C)C)NC(=O)[C@H](CO)NC(=O)[C@H](CCCNC(=N)N)NC(=O)[C@H](CO)NC1=O) [((N-Me)G)-IC+SRS-((tBu)A)-PPI-(Pen)+IP-(PEG4(19 atoms))-NH2]", 3.6],
  ["LICSRS[tBuAla]PPI[NMeC]I-NH2 (disulfide 3-11; N-terminus assumed; SMILES CC[C@H](C)[C@H](NC(=O)[C@@H]1CSSC[C@H](NC(=O)[C@@H](NC(=O)[C@@H](N)CC(C)C)[C@@H](C)CC)C(=O)N[C@@H](CO)C(=O)N[C@@H](CCCNC(=N)N)C(=O)N[C@@H](CO)C(=O)N[C@@H](CC(C)(C)C)C(=O)N2CCC[C@H]2C(=O)N2CCC[C@H]2C(=O)N[C@@H]([C@@H](C)CC)C(=O)N1C)C(N)=O) [LIC+SRS-((tBu)A)-PPI-((N-Me)C)+I-NH2]", 2.2],
  ["[Sar]ICSRS[tBuAla]PPI[Pen]IP-{PEG9-NH2} (disulfide 3-11) [((N-Me)G)-IC+SRS-((tBu)A)-PPI-(Pen)+IP-(PEG9(31 atoms))-NH2]", 1.8],
  ["AICSRSLP[Pro(4-spirocPr)]I[Pen]IPD-NH2 (disulfide 3-11; N-terminus assumed; SMILES CC[C@H](C)[C@H](NC(=O)[C@H](C)N)C(=O)N[C@H]1CSSC(C)(C)[C@@H](C(=O)N[C@H](C(=O)N2CCC[C@H]2C(=O)N[C@@H](CC(=O)O)C(N)=O)[C@@H](C)CC)NC(=O)[C@H]([C@@H](C)CC)NC(=O)[C@@H]2CC3(CC3)CN2C(=O)[C@@H]2CCCN2C(=O)[C@H](CC(C)C)NC(=O)[C@H](CO)NC(=O)[C@H](CCCNC(=N)N)NC(=O)[C@H](CO)NC1=O) [AIC+SRSLP-((6S)-5-Azaspiro[2.4]heptane-6-carboxylic acid)-I-(Pen)+IPD-NH2]", 1.33],
  ["[Sar]ICSRS[tBuAla]PPI[Pen]IP[PEG3]-NH2 (disulfide 3-11; N-terminus assumed; SMILES CC[C@H](C)[C@H](NC(=O)CNC)C(=O)N[C@H]1CSSC(C)(C)[C@@H](C(=O)N[C@H](C(=O)N2CCC[C@H]2C(=O)NCCOCCOCCOCCC(N)=O)[C@@H](C)CC)NC(=O)[C@H]([C@@H](C)CC)NC(=O)[C@@H]2CCCN2C(=O)[C@@H]2CCCN2C(=O)[C@H](CC(C)(C)C)NC(=O)[C@H](CO)NC(=O)[C@H](CCCNC(=N)N)NC(=O)[C@H](CO)NC1=O) [((N-Me)G)-IC+SRS-((tBu)A)-PPI-(Pen)+IP-(PEG2(13 atoms))-NH2]", 2.2]
]}
